# System: 2.2.15 cells
# Experiment: Cytotoxicity (TC50) in 2.2.15 cells
# Format: cell-based
Quick list: TC50 per entry.

>  <Compound>
CCOC(=O)c1c(CS(=O)(=O)c2cccc(C(F)(F)F)c2)n(C2CC2)c2cc(Br)c(O)c(CN3CCCC3)c12

>  <TC50, µg/mL>
35.61

$$$$
>  <Compound>
CCOC(=O)c1c(CS(=O)(=O)C23CC4CC(CC(C4)C2)C3)n(C)c2cc(Br)c(O)c(Cn3ccnc3C)c12

>  <TC50, µg/mL>
10.69

$$$$
>  <Compound>
CCOC(=O)c1c(C[S+]([O-])c2ccccc2)n(C)c2cc(Br)c(O)c(Cn3cncn3)c12 (stereo not drawn)

>  <TC50, µg/mL>
40.0

$$$$
>  <Compound>
CCOC(=O)c1c(C[S+]([O-])Cc2ccoc2)n(C)c2ccc(O)c(CN3CCCCC3)c12.Cl (stereo not drawn)

>  <TC50, µg/mL>
74.07

$$$$
>  <Compound>
CCOC(=O)c1c(C[S+]([O-])c2ccc(F)cc2)n(C)c2cc(Br)c(O)c(Cn3ccnc3)c12 (stereo not drawn)

>  <TC50, µg/mL>
48.1

$$$$
>  <Compound>
CCOC(=O)c1c(C[S+]([O-])Cc2ccccc2)n(C2CC2)c2cc(Br)c(O)c(Cn3ccnc3)c12 (stereo not drawn)

>  <TC50, µg/mL>
35.61

$$$$
>  <Compound>
CCOC(=O)c1c(CS(=O)(=O)Cc2ccc(F)cc2)n(C)c2cc(Br)c(O)c(Cn3ccnc3C)c12

>  <TC50, µg/mL>
12.35

$$$$
>  <Compound>
CCOC(=O)c1c(C[S+]([O-])c2ccc(F)cc2)n(C2CC2)c2cc(Br)c(O)c(CNC(=N)N)c12 (stereo not drawn)

>  <TC50, µg/mL>
18.52

$$$$
>  <Compound>
CCOC(=O)c1c(CS(=O)(=O)c2ccc(C(F)(F)F)cc2)n(C)c2cc(Br)c(O)c(Cn3ccnc3C)c12

>  <TC50, µg/mL>
51.36

$$$$

// data source = patent US7960427B2
